Just for reference, patent US20240360227A1 is where these values come from.

Catalogue of pKd readings, one per entry.
Experimental system: Recombinant human his-tagged IGF R extracellular domain protein (human) (UniProt P08069)
Measurement notes: SPR, Ab captured via anti-huIgG Fc, dissociation at pH 6
// field semantics: pKd = negative decimal log of concentration (mol/L)

Some solved cases for reference:
Binder: VRDN-02005 (antibody, V domains shown) VH: QVQLQESGPGLVKPSETLSLTCTVSGYSIHGGYLWNWIRQPPGKGLEWIGYISYDGTNNYKPSLKDRVTISRDTSKNQFSLKLSSVTAADTAVYYCARYGRVFFDYWGQGTLVTVSS VL: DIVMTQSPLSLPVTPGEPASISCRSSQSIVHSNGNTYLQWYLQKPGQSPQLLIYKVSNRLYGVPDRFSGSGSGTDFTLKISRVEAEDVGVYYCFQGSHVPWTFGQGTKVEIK
Observed measurement: 8.94
//
Binder: VRDN-02060 (antibody, V domains shown) VH: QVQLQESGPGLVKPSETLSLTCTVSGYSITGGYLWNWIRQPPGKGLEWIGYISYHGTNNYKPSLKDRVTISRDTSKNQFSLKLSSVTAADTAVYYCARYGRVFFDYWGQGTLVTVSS VL: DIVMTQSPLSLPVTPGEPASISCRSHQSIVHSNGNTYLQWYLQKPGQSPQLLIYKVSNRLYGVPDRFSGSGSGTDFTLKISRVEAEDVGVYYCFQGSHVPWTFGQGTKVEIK
Observed measurement: 9.40

Then this binder:
Need pKd of VRDN-02038 (antibody, V domains shown) VH: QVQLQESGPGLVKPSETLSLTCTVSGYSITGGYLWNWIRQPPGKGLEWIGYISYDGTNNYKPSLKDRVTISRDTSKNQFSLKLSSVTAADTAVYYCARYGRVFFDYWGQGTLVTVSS VL: DIVMTQSPLSLPVTPGEPASISCRSSQSIVHSNHNTYLQWYLQKPGQSPQLLIYKVSNRLYGVPDRFSGSGSGTDFTLKISRVEAEDVGVYYCFQGSHVPWTFGQGTKVEIK , thanks.
8.88
